# credit: patent US20220356229A1

The binders listed here are annotated with their median fluorescence intensity, fold over isotype control.
- Target entity: T1, MERS full length Spike (MERS-CoV, UniProt K9N5Q8 18-1291)
- T1 sequence: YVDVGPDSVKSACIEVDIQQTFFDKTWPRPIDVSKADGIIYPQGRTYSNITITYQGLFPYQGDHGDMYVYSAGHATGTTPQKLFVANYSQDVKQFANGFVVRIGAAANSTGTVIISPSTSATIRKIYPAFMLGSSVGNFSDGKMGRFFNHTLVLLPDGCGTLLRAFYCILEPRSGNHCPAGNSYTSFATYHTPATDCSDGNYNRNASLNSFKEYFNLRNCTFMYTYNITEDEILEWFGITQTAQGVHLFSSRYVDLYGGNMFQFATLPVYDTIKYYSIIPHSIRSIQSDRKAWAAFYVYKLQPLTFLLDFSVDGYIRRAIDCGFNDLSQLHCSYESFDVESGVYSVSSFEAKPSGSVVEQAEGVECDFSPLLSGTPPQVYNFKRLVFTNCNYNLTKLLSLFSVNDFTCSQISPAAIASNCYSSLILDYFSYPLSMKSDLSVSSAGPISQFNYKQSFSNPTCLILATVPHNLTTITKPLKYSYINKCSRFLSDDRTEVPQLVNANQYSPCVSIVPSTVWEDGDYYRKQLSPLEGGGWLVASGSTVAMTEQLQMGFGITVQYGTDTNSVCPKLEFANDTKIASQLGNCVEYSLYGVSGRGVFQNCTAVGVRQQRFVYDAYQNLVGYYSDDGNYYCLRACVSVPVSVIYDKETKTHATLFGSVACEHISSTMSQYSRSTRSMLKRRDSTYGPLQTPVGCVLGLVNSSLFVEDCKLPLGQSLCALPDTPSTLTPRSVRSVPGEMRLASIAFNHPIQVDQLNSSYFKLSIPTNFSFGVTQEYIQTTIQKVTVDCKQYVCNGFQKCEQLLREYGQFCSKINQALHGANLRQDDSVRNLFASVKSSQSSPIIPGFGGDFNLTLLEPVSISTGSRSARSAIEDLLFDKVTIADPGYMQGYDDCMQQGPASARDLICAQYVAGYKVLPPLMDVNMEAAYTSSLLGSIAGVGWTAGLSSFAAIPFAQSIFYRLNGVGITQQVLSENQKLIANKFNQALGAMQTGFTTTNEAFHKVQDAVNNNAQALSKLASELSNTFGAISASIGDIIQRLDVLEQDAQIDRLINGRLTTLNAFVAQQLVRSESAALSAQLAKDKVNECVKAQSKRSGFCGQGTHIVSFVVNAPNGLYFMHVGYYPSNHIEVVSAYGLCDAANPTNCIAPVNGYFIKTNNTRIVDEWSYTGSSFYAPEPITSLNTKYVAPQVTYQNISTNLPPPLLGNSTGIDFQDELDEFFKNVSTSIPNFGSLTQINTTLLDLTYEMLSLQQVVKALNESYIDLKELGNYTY
Form entry: value (fold over isotype) — number only.

// worked examples, median fluorescence intensity, fold over isotype control included
| Binder | Readout value |
| --- | --- |
| mAb 1015 (antibody, V domains shown) VH: EVQLVESGGGLVQPGGSLRLSCAASGFTFSSYWMHWVRQAPGKGLVWVSHINSDGSSTSYADSVKGRFTISRDNAKNTLYLQMNSLRAEDTAVYYCARGLRYFDLDVWGQGTTVTVSS VL: QSVLTQPPSVSEAPRQRVTISCSGSSSNIGNNAVNWYQQLPGKAPKLLIFYDDLLPSGVSDRFSGSKSGTSASLAISGLQSEDEADYYCAAWDDSLNGGVFGGGTKLTVLG | 0.85 |
| mAb 936 (antibody, V domains shown) VH: EVQLVESGGGLVQPGRSLTLSCAGSGFTFDDYAMHWVRQAPGKGLEWVSGISWNSGSIGYADSVKGRFTISRDNAKNSLYLQMNSLRAEDTALYYCAKDVSYDSSGYYNNAFDIWGQGTMVTVSS VL: DIQLTQSPSFLSASVGDRVTITCRASQGISSYLAWYQQKPGKAPKLLIYAASTLQSGVPSRFSGSGSGTEFTLTISSLQPEDFATYYCQQLYSYPVTFGQGTRLEIKR | 0.92 |

What median fluorescence intensity, fold over isotype control value was documented for this binder, mAb 1495 (antibody, V domains shown) VH: QVQLVESGGGVVQPGRSLRLSCTASGFTFSSYAMHWVRQAPGKGLEWVAVISYDGNNKYYGDSVKGRFTISRDNSKNTLYLQMNSLRAEDTAVYYCAKGADTPHYSGYHFLSVGYYFYGMDVWGQGTTVTVSS VL: DIQMTQSPSSLSASVGDRVTITCRASQSISYYLNWYQQKPGKAPQLLIYAASSLQSGVPSRFSGSRSGTDFTLTISSLQPEDFATYYCQQSYSTPFTFGPGTKVDIKR ?
0.93
